Target: Adenosine receptor A3 (Homo sapiens, UniProt P0DMS8);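 note: radioligand binding assay with AB-MECA serving as the labeled ligand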
Sequence (P0DMS8 whole entry): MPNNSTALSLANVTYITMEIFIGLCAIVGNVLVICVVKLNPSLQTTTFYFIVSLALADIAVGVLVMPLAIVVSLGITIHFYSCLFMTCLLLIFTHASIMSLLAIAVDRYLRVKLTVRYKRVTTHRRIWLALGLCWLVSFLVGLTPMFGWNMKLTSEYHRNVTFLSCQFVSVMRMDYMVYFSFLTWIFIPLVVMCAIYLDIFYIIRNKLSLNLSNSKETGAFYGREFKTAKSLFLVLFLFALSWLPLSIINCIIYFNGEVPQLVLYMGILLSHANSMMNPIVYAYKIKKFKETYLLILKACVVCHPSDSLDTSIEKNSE
Format: cell membranes, CHO-K1, Membrane
Conditions: read-out: IC50
endpoint: IC50 (µM)
Numbers only, in µM.

Give me IC50 for each of these compounds, listed below.
1. Oc1c(I)cc(I)c2cccnc12
2. CC1=C(/C=C/C(C)=C/C=C/C(C)=C\C(=O)O)C(C)(C)CCC1
3. CCCCCCCCCc1ccc(O)cc1
4. Oc1c(Cl)cc(Cl)cc1Sc1cc(Cl)cc(Cl)c1O
5. Clc1ccc(C(c2ccccc2Cl)C(Cl)Cl)cc1 (configuration not stated)
6. C[C@]12Cc3c[nH]nc3C[C@@H]1CC[C@@H]1[C@@H]2CC[C@@]2(C)[C@H]1CC[C@]2(C)O
7. Clc1ccccc1C(c1ccccc1)(c1ccccc1)n1ccnc1

Ans.
1: 0.933; 2: 4.17; 3: 1.92; 4: 0.829; 5: 7.45; 6: 8.33; 7: 4.75
